Attribution: the supplement of paper PMC11451515

Give measured cell viability for each item. Keep answers brief.
- System: P12-Ichikawa
- Assay details: cell viability relative to DMSO control; higher = less cytotoxic
- Condition label: RPMI 5 mM glucose + 10% dialyzed FBS; 48 h; 0.00702 µM
Give bare numbers, in %.

Some molecules with known cell viability results, for comparison:
molecule="C[Se]CCC(N)C(=O)O (centres undefined)" readout_label="cell viability" numeric_result=83.2
molecule=CN(C)c1nc(N(C)C)nc(N(C)C)n1 readout_label="cell viability" numeric_result=95.5

Need cell viability for each of these molecules.
1. CCC(CC)[C@H](NC(C)=O)[C@@H]1[C@H](O)[C@@H](C(=O)O)C[C@H]1NC(=N)N
2. Cc1ccc(F)c(NC(=O)Nc2ccc(-c3cccc4[nH]nc(N)c34)cc2)c1

[81.7, 123]

Need cell viability for each of these molecules.
1. COc1ccc2cccc(CCNC(C)=O)c2c1
2. COc1cc2c(NC3CCN(C(C)C)CC3)nc(C3CCCCC3)nc2cc1OCCCN1CCCC1
3. CCOc1ccccc1OCCNC(C)Cc1ccc(OC)c([S+](N)(=O)[O-])c1 (centres undefined)
4. COC(=O)N[C@H](C(=O)N[C@@H](Cc1ccccc1)[C@@H](O)CN(Cc1ccc(-c2ccccn2)cc1)NC(=O)[C@@H](NC(=O)OC)C(C)(C)C)C(C)(C)C
5. C[C@H]1[C@@H](CC(C[C@H]2O[C@@H]3O[C@]4(C)CC[C@H]5[C@H](C)CC[C@@H]([C@H]2C)[C@@]35OO4)C[S+](=O)([O-])c2ccc(COC(=O)N(C)C)cc2)O[C@@H]2O[C@]3(C)CC[C@H]4[C@H](C)CC[C@@H]1[C@@]24OO3

1. 110
2. 114
3. 101
4. 112
5. 107

---

- Test system: P12-Ichikawa
- Assay details: cell viability relative to DMSO control; higher = less cytotoxic
- Condition label: RPMI 5 mM glucose + 10% dialyzed FBS; 48 h; 0.00702 µM
Readout label: cell viability (%)
Numbers only, in %.

Some compounds with known cell viability results, for comparison:
compound=COc1cc(/C=C/C(=O)CC(=O)/C=C/c2ccc(O)c(OC)c2)ccc1O tested_on=P12-Ichikawa numeric_result=105
compound="O=C1[O][Pt]2([NH]C3CCCCC3[NH]2)[O]C1=O (stereo not given)" tested_on=P12-Ichikawa numeric_result=121
compound=CC1=C(/C=C/C(C)=C/C=C/C(C)=C/C(=O)Nc2ccc(O)cc2)C(C)(C)CCC1 tested_on=P12-Ichikawa numeric_result=84
compound="COc1ccc2cc(-c3[nH]c(-c4ccc([S+](C)[O-])cc4)nc3-c3ccncc3)ccc2c1 (stereo not given)" tested_on=P12-Ichikawa numeric_result=105

For the compound "CC(C)[C@@H](N(CCCN)C(=O)C1=CC=C(C)C=C1)C/2=C(\CC3=CC=CC=C3)C(=O)C4=C(O2)C=C(Cl)C=C4" , what cell viability is on record?
20.7

---

Give measured cell viability for each item. Keep answers brief.
- Tested on: NOMO1
- Assay details: cell viability relative to DMSO control; higher = less cytotoxic
- Condition label: RPMI 5 mM glucose + 10% FBS; 48 h; 0.19 µM
Numbers only, in %.

Some molecules with known cell viability results, for comparison:
molecule=CCCn1c(=O)c2[nH]c(C34CC5CC3C[C@@H](C5)C4)nc2n(CCC)c1=O numeric_result=91.5
molecule=CN(C(=O)c1ccc(F)cc1C(F)(F)F)C1CCN(c2nnc(-c3ccnn3C)c3ccccc23)CC1 numeric_result=84.8
molecule="COc1ccc(-c2nc3cc(C4=NNC(=O)CC4C)ccc3[nH]2)cc1 (stereo not given)" numeric_result=118
molecule=CCOC(=O)c1ncn2c1CN(C)C(=O)c1cc(F)ccc1-2 numeric_result=104

API: the following record is the query input.
For the molecule Cc1c(OCC(F)(F)F)ccnc1C[S+]([O-])c1nc2ccccc2[nH]1 (stereo not given) , what cell viability is on record?
108

---

- Tested on: NOMO1
- Assay details: cell viability relative to DMSO control; higher = less cytotoxic
- Condition label: HPLM + 10% dialyzed FBS; 48 h; 0.19 µM
Readout label: cell viability (%)
Numbers only, in %.

compound=OC1=C(C=CC=C1)C2=CC=C(C=C2)C3=CSC4=C3C(=C(/C#N)C(=O)N4)/O readout_label="cell viability" numeric_result=110
compound=COc1cc(N2CCC(N3CCN(C)CC3)CC2)ccc1Nc1ncnc(Nc2ccccc2[S+](=O)([O-])C(C)C)n1 readout_label="cell viability" numeric_result=123
compound=c1ccc2c(-c3cnn4cc(-c5ccc(N6CCNCC6)cc5)cnc34)ccnc2c1 readout_label="cell viability" numeric_result=143

Need cell viability for each of these compounds.
1. CC(=O)SCC(Cc1ccccc1)C(=O)NCC(=O)OCc1ccccc1 (centres undefined)
2. CC(C)[C@H](CO)Nc1nc(Nc2ccc(C(=O)O)c(Cl)c2)c2ncn(C(C)C)c2n1
3. COc1ccc(CCC(=O)Nc2nc3ccc(Cl)cc3s2)cc1OC
4. Nc1ccc([S+](=O)([O-])Nc2ccccn2)cc1
5. CC(C)(O)CNc1nc(Nc2ccnc(C(F)(F)F)c2)nc(-c2cccc(C(F)(F)F)n2)n1
6. O=C1[O][Pt]2([NH]C3CCCCC3[NH]2)[O]C1=O (centres undefined)

106
118
126
115
122
118

---

- Test system: NOMO1
- Assay details: cell viability relative to DMSO control; higher = less cytotoxic
- Condition label: RPMI 5 mM glucose + 10% FBS; 48 h; 0.569 µM
Readout label: cell viability (%)
Answers are plain numbers, in %.

compound="CN1[C@@H]2CC(O)C[C@H]1[C@@H]1O[C@@H]12 (stereo not given in full)" numeric_result=103
compound=c1ccc2c(Oc3nc(Nc4ccc(N5CCOCC5)cc4)c4ncn(C5CCCCC5)c4n3)cccc2c1 numeric_result=131

Need cell viability for each of these compounds.
1. CCCn1c(=O)c2[nH]c(C34CC5CC3C[C@@H](C5)C4)nc2n(CCC)c1=O
2. CC1=CC2=C(O1)C(=C3OC(=O)\C=C(C)/C3=C2)C
3. Cl.Cl.Fc1ccc(C(OCCN2CCN(CCCc3ccccc3)CC2)c2ccc(F)cc2)cc1

1: 86.5; 2: 114; 3: 117

---

- Test system: NOMO1
- Assay details: cell viability relative to DMSO control; higher = less cytotoxic
- Condition label: HPLM + 10% dialyzed FBS; 48 h; 0.000781 µM
Readout label: cell viability
Give the value; after it, write the unit.

molecule=COc1cc2c(NC3CCN(C(C)C)CC3)nc(C3CCCCC3)nc2cc1OCCCN1CCCC1 tested_on=NOMO1 readout_label="cell viability" result=120%
molecule=N=C(N)c1ccc(OCCCCCOc2ccc(C(=N)N)cc2)cc1 tested_on=NOMO1 readout_label="cell viability" result=111%
molecule=CCOC(=O)c1ccc(C#Cc2ccc3c(c2)C(C)(C)CCS3)nc1 tested_on=NOMO1 readout_label="cell viability" result=101%
molecule="CCOc1ccccc1OCCNC(C)Cc1ccc(OC)c([S+](N)(=O)[O-])c1 (stereo not given)" tested_on=NOMO1 readout_label="cell viability" result=103%
molecule=CN(C)c1nc(N(C)C)nc(N(C)C)n1 tested_on=NOMO1 readout_label="cell viability" result=101%

Need cell viability for each of these molecules.
1. COc1ccc(-c2nc3cc(C4=NNC(=O)CC4C)ccc3[nH]2)cc1 (stereo not given)
2. C=C1C[C@@]2(O)O[C@@]3(C[C@H]2C(C)C)[C@@H](C)CC[C@@H]13
3. NC/1=N/C(=O)N(/C=C1)[C@H]2CC[C@@H](CO)O2
4. NC12CC3CC(CC(C3)C1)C2
5. COc1ccc2cc(-c3[nH]c(-c4ccc([S+](C)[O-])cc4)nc3-c3ccncc3)ccc2c1 (stereo not given)
6. CC1=CC2=C(O1)C(=C3OC(=O)\C=C(C)/C3=C2)C
7. OC1=C(C=CC=C1)C2=CC=C(C=C2)C3=CSC4=C3C(=C(/C#N)C(=O)N4)/O
8. O=C1c2cccc(O)c2C(=O)c2c(O)cc(CO)cc21

104%
120%
76%
108%
115%
79.8%
119%
89.5%

Need cell viability for each of these molecules.
1. NC\1=N\C(=O)N(\C=N1)[C@H]2C[C@H](O)[C@@H](CO)O2
2. Cc1ccccc1C(C(=O)NC1CCCCC1)N(C(=O)CNc1ccc(C#N)cc1)c1cccc(F)c1 (stereo not given)
3. CC1(C)CC(=O)c2c(C(F)(F)F)nn(-c3ccc(C(N)=O)c(NC4CCC(OC(=O)CN)CC4)c3)c2C1 (stereo not given)
4. C[C@H]1CCC/C=C/C2C[C@H](O)C[C@H]2[C@H](O)/C=C/C(=O)O1 (stereo not given in full)
5. CNC(=O)c1c(F)cccc1Nc1nc(Nc2cc3c(cc2OC)CCN3C(=O)CN(C)C)nc2[nH]ccc12
6. COC1=CC=C(C=C1)C/2=C/OC3=CC(=CC=C3C2=O)O

["110%", "103%", "94.8%", "4.93%", "89.3%", "108%"]

For the molecule "CCc1cc(/C(C)=N/OCc2ccc(C3CCCCC3)c(C(F)(F)F)c2)ccc1CN1CC(C(=O)O)C1" , what cell viability is on record?
111%
